TESTED TARGET: GST-PPARα-LBD fusion protein (Homo sapiens, UniProt Q07869)
Construct: PPARα (aa 167 to 469)
Sequence (Q07869 167-468 limits assumed): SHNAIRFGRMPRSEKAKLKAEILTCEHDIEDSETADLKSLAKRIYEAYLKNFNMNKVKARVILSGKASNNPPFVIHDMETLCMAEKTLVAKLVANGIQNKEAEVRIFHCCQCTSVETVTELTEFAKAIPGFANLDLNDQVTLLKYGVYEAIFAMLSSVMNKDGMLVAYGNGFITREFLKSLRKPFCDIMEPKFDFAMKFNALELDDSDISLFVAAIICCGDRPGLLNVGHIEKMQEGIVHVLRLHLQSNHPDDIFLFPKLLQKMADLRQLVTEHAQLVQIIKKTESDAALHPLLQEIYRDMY
ASSAY INFO: PPARα radioligand binding assay (SPA)
pIC50: −log10 of the molar value.

[
  {
    "COMPOUND": "Cc1cc(OCc2cc(-c3ccc(OC(F)(F)F)cc3)nn2C)ccc1OC(C)(C)C(=O)O [Example 1]",
    "TESTED TARGET": "GST-PPARα-LBD fusion protein (Homo sapiens, UniProt Q07869)",
    "pIC50": 6.78
  },
  {
    "COMPOUND": "Cc1cc(OCc2cc(-c3ccc(OC(F)(F)F)cc3)nn2CC(F)(F)F)ccc1OC(C)(C)C(=O)O [Example 6]",
    "TESTED TARGET": "GST-PPARα-LBD fusion protein (Homo sapiens, UniProt Q07869)",
    "pIC50": 6.67
  }
]

The reported measurements were obtained from patent US20110237640A1.
